Listed compounds paired with reported inhibition in vivo at 50 mg/kg
Test system: Rattus norvegicus
Assay: Antiinflammatory activity in Wistar albino rat assessed as inhibition of carrageenan-induced paw edema at 50 mg/kg, po administered 30 mins before carrageenan challenge measured after 30 mins relative to control
Type: functional
Only the number, expressed in %, is required.

INSERT INTO assay_data (compound, target_desc, parameter_measured, measure_unit, observed_measurement) VALUES
  ('Cc1ccc(-c2nn(-c3ccccc3)cc2C2CC(c3ccccc3)=NN2c2ccc(S(N)(=O)=O)cc2)cc1 (stereo not drawn)', 'Rattus norvegicus', 'inhibition in vivo at 50 mg/kg', '%', 18);

Any idea what its inhibition in vivo at 50 mg/kg is? The compound is Cc1ccc(C2=NN(c3ccc(S(N)(=O)=O)cc3)C(c3cn(-c4ccccc4)nc3-c3ccccc3)C2)cc1 (stereo not drawn)
5

Any idea what its inhibition in vivo at 50 mg/kg is? The compound is NS(=O)(=O)c1ccc(N2N=C(c3ccccc3)CC2c2cn(-c3ccccc3)nc2-c2ccc(F)cc2)cc1 (stereo not drawn)
18
